assay: Cmax in ICR mouse at 10 mg/kg, ip measured upto 24 hrs by LC-MS/MS analysis; assay type: ADME, organism-based; settings: in vivo
Reported Cmax is given for each of the following compounds.
Give the figure together with its unit, number first.

* Fc1ccc2[nH]cc(CCC3c4cc5c(cc4CCN3CC3CCOCC3)OCO5)c2c1 (stereo not drawn) | 146 ng/mL
* c1ccc2c(CCC3NCCc4cc5c(cc43)OCO5)c[nH]c2c1 (stereo not drawn) | 4720 ng/mL

Then this compound:
Query block: Can you look up the measured Cmax of COc1cc2c(cc1OC)C(CCc1c[nH]c3ccccc13)N(CC1CCOCC1)CC2 (stereo not drawn) for me?
Result block: 620 ng/mL

###

This section presents compounds with their documented Tmax values.
assay: Tmax in ICR mouse at 20 mg/kg, po measured upto 24 hrs by LC-MS/MS analysis; format: ADME, organism-based; settings: in vivo
Give just the numeric value; min need not be written.

The cases that follow already have their Tmax on record.
• c1ccc2c(CCC3NCCc4cc5c(cc43)OCO5)c[nH]c2c1 (stereo not drawn) = 34.8
• Fc1ccc2[nH]cc(CCC3c4cc5c(cc4CCN3CC3CCOCC3)OCO5)c2c1 (stereo not drawn) = 25.2

Could you now consider this next compound?
Query block: Tell me the measured Tmax of COc1cc2c(cc1OC)C(CCc1c[nH]c3ccccc13)N(CC1CCOCC1)CC2 (stereo not drawn) , please.
Result block: 25.2

###

assay: AUC (0 to t) in ICR mouse at 20 mg/kg, po measured upto 24 hrs by LC-MS/MS analysis; format: ADME, organism-based; settings: ICR, in vivo
reported endpoint: AUC(0-t) at 24 h (µg·h/mL)
Quick note: give the figure in µg·h/mL, leave out the unit.

* c1ccc2c(CCC3NCCc4cc5c(cc43)OCO5)c[nH]c2c1 (configuration not stated) | 17.1

Next, consider the following compound.
Query block: If you can, please state the reported AUC(0-t) at 24 h value of COc1cc2c(cc1OC)C(CCc1c[nH]c3ccccc13)N(CC1CCOCC1)CC2 (configuration not stated) .
Result block: 0.0163

###

target: Sodium-dependent dopamine transporter (Homo sapiens); test: Displacement of [3H] dopamine from DAT in HEK293 cells incubated for 15 mins by microbeta analysis; format: cell-based
Sequence (Q01959 whole entry): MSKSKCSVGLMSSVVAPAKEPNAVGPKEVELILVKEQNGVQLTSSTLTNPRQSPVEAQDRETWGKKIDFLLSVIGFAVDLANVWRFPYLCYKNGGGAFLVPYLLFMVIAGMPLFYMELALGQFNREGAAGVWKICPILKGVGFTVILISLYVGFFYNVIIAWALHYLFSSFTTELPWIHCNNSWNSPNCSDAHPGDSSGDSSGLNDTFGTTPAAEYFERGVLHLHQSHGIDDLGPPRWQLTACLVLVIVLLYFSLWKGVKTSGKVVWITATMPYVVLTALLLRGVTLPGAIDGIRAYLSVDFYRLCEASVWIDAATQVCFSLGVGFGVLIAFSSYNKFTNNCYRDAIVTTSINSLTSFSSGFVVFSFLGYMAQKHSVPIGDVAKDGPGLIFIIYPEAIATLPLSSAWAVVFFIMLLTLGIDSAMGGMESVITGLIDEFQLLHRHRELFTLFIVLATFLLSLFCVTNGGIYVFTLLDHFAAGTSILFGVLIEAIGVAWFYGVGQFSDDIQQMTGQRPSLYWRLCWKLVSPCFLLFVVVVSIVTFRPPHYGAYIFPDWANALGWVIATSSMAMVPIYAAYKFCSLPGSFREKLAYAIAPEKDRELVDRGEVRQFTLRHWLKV
reported endpoint: IC50

Query block: Give its IC50 value. Item: c1ccc2c(CCC3NCCc4cc5c(cc43)OCO5)c[nH]c2c1 (stereo unspecified)
Result block: 6.34 µM

###

Below, each of the compounds is paired with its reported Kp at 24 h value.
experiment: Ratio of drug concentration in ICR mouse brain to plasma at 5 mg/kg, iv measured upto 24 hrs by LC-MS/MS analysis; type: ADME, organism-based; settings: brain and plasma, read-out: BPR

Some compounds with known Kp at 24 h results, for comparison:
* COc1cc2c(cc1OC)C(CCc1c[nH]c3ccccc13)N(CC1CCOCC1)CC2 (stereo not drawn) | 2.2
* Fc1ccc2[nH]cc(CCC3c4cc5c(cc4CCN3CC3CCOCC3)OCO5)c2c1 (stereo not drawn) | 6.9

Shifting focus to the compound that follows.
Query block: For the compound c1ccc2c(CCC3NCCc4cc5c(cc43)OCO5)c[nH]c2c1 (stereo not drawn) , what Kp at 24 h is on record?
Result block: 2.8

###

assay: Ratio of drug concentration in ICR mouse brain to plasma at 10 mg/kg, ip measured upto 24 hrs by LC-MS/MS analysis; format: ADME, organism-based; settings: brain and plasma, read-out: BPR
reported endpoint: Kp at 24 h
Keep the answer to the number alone.

Here's what some known entries look like.
* c1ccc2c(CCC3NCCc4cc5c(cc43)OCO5)c[nH]c2c1 (stereo not drawn) | 1.1
* Fc1ccc2[nH]cc(CCC3c4cc5c(cc4CCN3CC3CCOCC3)OCO5)c2c1 (stereo not drawn) | 5.2

Query block: # query: Kp at 24 h of entry COc1cc2c(cc1OC)C(CCc1c[nH]c3ccccc13)N(CC1CCOCC1)CC2 (stereo not drawn)
Result block: 1.9

###

In this section, each of the compounds is paired with its reported bioavailability.
assay: Oral bioavailability in ICR mouse at 20 mg/kg measured upto 24 hrs by LC-MS/MS analysis; format: ADME, organism-based; settings: ICR, in vivo

* c1ccc2c(CCC3NCCc4cc5c(cc43)OCO5)c[nH]c2c1 (configuration not stated) | 76.4%

Okay, now this compound:
Query block: # get_value(readout='bioavailability', item= COc1cc2c(cc1OC)C(CCc1c[nH]c3ccccc13)N(CC1CCOCC1)CC2 (configuration not stated) )
Result block: 0.67%

###

assay: Volume of distribution at steady state in ICR mouse measured upto 24 hrs by LC-MS/MS analysis; assay type: ADME; settings: in vivo, read-out: Vdss
reported endpoint: Vd (L/kg)
Report only the number, with the unit L/kg understood.

• c1ccc2c(CCC3NCCc4cc5c(cc43)OCO5)c[nH]c2c1 (centres undefined) = 4.51
• Fc1ccc2[nH]cc(CCC3c4cc5c(cc4CCN3CC3CCOCC3)OCO5)c2c1 (centres undefined) = 36.8
• COc1ccc2[nH]cc(CCC3c4cc(OC)c(OC)cc4CCN3CC3CCOCC3)c2c1 (centres undefined) = 97.5

Now look at this entry.
Query block: Please give the measured Vd for this compound: COc1cc2c(cc1OC)C(CCc1c[nH]c3ccccc13)N(CC1CCOCC1)CC2 (centres undefined)
Result block: 8.66

###

Measured half-life, listed per entry for reference.
experiment: Half life in ICR mouse at 10 mg/kg, ip measured upto 24 hrs by LC-MS/MS analysis; format: ADME, organism-based; conditions: in vivo
API: value field is a number in h; no unit string.

Worked cases, half-life given:
• COc1cc2c(cc1OC)C(CCc1c[nH]c3ccccc13)N(CC1CCOCC1)CC2 (stereo not drawn) = 0.97
• Fc1ccc2[nH]cc(CCC3c4cc5c(cc4CCN3CC3CCOCC3)OCO5)c2c1 (stereo not drawn) = 1.17

Query block: Param item = c1ccc2c(CCC3NCCc4cc5c(cc43)OCO5)c[nH]c2c1 (stereo not drawn) ; retrieve measured half-life.
Result block: 2.05

###

Here the recorded half-life is given for each entry.
assay: Half life in ICR mouse at 20 mg/kg, po measured upto 24 hrs by LC-MS/MS analysis; format: ADME, organism-based; details: in vivo
Reply with the number, then its unit.

Below, 2 compounds whose answers are already recorded.
* c1ccc2c(CCC3NCCc4cc5c(cc43)OCO5)c[nH]c2c1 (stereo not drawn) | 3.1 h
* COc1cc2c(cc1OC)C(CCc1c[nH]c3ccccc13)N(CC1CCOCC1)CC2 (stereo not drawn) | 3.6 h

// moving on: another record for half-life
Query block: Any idea what its half-life is? The compound is Fc1ccc2[nH]cc(CCC3c4cc5c(cc4CCN3CC3CCOCC3)OCO5)c2c1 (stereo not drawn)
Result block: 2.37 h

###

Collected AUC(0-t) at 24 h values appear next to each entry.
experiment: AUC (0 to t) in ICR mouse at 5 mg/kg, iv measured upto 24 hrs by LC-MS/MS analysis; assay type: ADME, organism-based; conditions: ICR, in vivo
API: value field is a number in ng·h/mL; no unit string.

Answered examples (2):
• COc1cc2c(cc1OC)C(CCc1c[nH]c3ccccc13)N(CC1CCOCC1)CC2 (stereo not drawn) = 604
• COc1ccc2[nH]cc(CCC3c4cc(OC)c(OC)cc4CCN3CC3CCOCC3)c2c1 (stereo not drawn) = 21.5

Next up:
Query block: # AUC(0-t) at 24 h lookup, item c1ccc2c(CCC3NCCc4cc5c(cc43)OCO5)c[nH]c2c1 (stereo not drawn)
Result block: 3310

###

experiment: Bioavailability in ICR mouse at 5 mg/kg, ip measured upto 24 hrs by LC-MS/MS analysis; assay type: ADME, organism-based; settings: in vivo
reported endpoint: bioavailability (%)
# output: bare number, implied unit %

Below: 2 compounds and their reported bioavailability.
- COc1cc2c(cc1OC)C(CCc1c[nH]c3ccccc13)N(CC1CCOCC1)CC2 (stereo not drawn): 50.4
- Fc1ccc2[nH]cc(CCC3c4cc5c(cc4CCN3CC3CCOCC3)OCO5)c2c1 (stereo not drawn): 25.7

Query block: Consider the compound shown here: c1ccc2c(CCC3NCCc4cc5c(cc43)OCO5)c[nH]c2c1 (stereo not drawn) What is its recorded bioavailability?
Result block: 115

###

test system: HeLa; test: Upregulation of CTSD mRNA expression in TFEB knockout human HeLa cells at 10 uM incubated for 24 hrs by qRT-PCR analysis; assay type: functional, cell-based
Active and inactive are the calls of the source. No cut-off for these calls is given here.
reported endpoint: Activity

- COc1cc2c(cc1OC)C(CCc1c[nH]c3ccccc13)N(CC1CCOCC1)CC2 (centres undefined): Active
- c1ccc2c(CCC3NCCc4cc5c(cc43)OCO5)c[nH]c2c1 (centres undefined): Active
- COc1ccc2[nH]cc(CCC3c4cc(OC)c(OC)cc4CCN3CC3CCOCC3)c2c1 (centres undefined): Active
- Fc1ccc2[nH]cc(CCC3c4cc5c(cc4CCN3CC3CCOCC3)OCO5)c2c1 (centres undefined): Active
